Source listed as patent US10913757B2.

Quick reference: ADP/O of the listed items.
tested on: rat liver mitochondria (RLM); test: Mitochondrial respiration of isolated RLM (Clark-type oxygen electrode); assay type: biochemical; conditions: succinate; 5 μM
# print the numeric value only

compound	measurement type	val
CS(=O)(=O)[O-].O=C(/C=C/c1cc(O)c(O)c(O)c1)NCCCCCCCCCC[P+](c1ccccc1)(c1ccccc1)c1ccccc1 [AntiOxCIN7]	ADP/O	1.8

stdin: Need ADP/O, item CS(=O)(=O)[O-].O=C(/C=C/c1ccc(O)c(O)c1)NCCCCCCCCCC[P+](c1ccccc1)(c1ccccc1)c1ccccc1 [AntiOxCIN6]
stdout: 1.5

stdin: // same read-out, input: COC1=C(OC)C(=O)C(CCCCCCCCCC[P+](c2ccccc2)(c2ccccc2)c2ccccc2)=C(C)C1=O.CS(=O)(=O)[O-] [MitoQ, reference compound]
stdout: 1.3

stdin: // same read-out, input: CS(=O)(=O)[O-].O=C(/C=C/c1cc(O)c(O)c(O)c1)NCCCCCC[P+](c1ccccc1)(c1ccccc1)c1ccccc1 [AntiOxCIN4]
stdout: 1.3

stdin: // same read-out, input: CS(=O)(=O)[O-].O=C(/C=C/c1ccc(O)c(O)c1)NCCCCCC[P+](c1ccccc1)(c1ccccc1)c1ccccc1 [AntiOxCIN2]
stdout: 1.3

stdin: // same read-out, input: CS(=O)(=O)[O-].O=C(/C=C/c1cc(O)c(O)c(O)c1)NCCCCCCCC[P+](c1ccccc1)(c1ccccc1)c1ccccc1 [AntiOxCIN5]
stdout: 1.5

stdin: // same read-out, input: CS(=O)(=O)[O-].O=C(/C=C/c1ccc(O)c(O)c1)NCCCCCCCC[P+](c1ccccc1)(c1ccccc1)c1ccccc1 [AntiOxCIN3]
stdout: 1.8
